Where do the numbers come from? From ChEMBL document CHEMBL5723035.

Biological target: Breast cancer type 1 susceptibility protein (Homo sapiens)
Sequence (P38398 whole entry): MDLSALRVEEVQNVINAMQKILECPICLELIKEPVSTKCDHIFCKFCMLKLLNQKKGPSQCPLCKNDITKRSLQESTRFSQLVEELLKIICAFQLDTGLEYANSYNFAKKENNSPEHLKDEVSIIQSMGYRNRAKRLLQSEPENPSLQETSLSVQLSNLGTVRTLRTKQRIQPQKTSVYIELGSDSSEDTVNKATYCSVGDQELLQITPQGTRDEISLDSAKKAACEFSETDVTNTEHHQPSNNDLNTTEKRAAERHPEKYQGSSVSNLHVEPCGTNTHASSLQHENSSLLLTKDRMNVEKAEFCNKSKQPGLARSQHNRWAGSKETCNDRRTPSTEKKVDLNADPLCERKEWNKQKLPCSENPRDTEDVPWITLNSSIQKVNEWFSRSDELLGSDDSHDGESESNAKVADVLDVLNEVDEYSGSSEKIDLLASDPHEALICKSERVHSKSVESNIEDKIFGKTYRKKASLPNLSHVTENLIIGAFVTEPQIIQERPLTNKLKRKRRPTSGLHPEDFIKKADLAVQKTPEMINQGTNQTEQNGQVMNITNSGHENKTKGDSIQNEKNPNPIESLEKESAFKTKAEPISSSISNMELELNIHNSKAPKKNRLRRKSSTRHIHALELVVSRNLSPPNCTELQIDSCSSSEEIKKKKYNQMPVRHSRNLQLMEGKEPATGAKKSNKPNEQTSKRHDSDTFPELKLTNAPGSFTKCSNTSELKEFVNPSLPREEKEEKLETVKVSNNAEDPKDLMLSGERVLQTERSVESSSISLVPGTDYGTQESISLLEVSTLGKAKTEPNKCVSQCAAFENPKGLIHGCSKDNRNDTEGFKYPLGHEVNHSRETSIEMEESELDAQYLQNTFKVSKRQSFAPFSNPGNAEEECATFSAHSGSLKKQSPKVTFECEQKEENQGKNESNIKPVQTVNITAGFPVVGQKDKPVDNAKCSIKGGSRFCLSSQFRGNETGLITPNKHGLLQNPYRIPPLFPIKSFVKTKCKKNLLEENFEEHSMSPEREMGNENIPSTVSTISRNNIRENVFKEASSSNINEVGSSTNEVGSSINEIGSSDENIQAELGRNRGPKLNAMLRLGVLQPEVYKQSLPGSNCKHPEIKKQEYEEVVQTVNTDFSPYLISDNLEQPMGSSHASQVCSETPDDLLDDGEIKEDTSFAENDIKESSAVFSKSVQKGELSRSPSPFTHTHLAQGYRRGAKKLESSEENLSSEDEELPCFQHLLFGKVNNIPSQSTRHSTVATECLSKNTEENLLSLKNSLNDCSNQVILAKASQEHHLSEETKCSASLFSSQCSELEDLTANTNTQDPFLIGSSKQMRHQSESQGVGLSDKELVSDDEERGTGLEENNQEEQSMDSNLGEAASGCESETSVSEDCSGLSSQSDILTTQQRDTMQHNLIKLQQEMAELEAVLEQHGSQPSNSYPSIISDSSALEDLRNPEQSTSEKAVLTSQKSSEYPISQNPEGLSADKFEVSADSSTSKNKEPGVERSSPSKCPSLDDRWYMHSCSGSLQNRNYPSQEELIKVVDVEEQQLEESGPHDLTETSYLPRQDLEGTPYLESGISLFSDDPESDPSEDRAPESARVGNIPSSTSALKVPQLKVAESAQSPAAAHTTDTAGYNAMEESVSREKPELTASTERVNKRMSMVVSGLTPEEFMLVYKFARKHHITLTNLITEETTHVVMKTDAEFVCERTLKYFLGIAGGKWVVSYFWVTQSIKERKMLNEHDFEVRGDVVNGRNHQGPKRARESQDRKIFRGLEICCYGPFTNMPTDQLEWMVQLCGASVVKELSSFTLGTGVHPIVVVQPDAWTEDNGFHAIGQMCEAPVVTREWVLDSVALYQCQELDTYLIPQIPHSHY
Experiment: Affinity Biochemical interaction: (Fluorescence polarisation assay) EUB0002518a BRCA1
READOUT NAME: pIC50
Give bare numbers, as −log10 of the molar value.

Specify reported pIC50 for the molecule shown: O=C(CNC(=O)[C@H](COP(=O)(O)O)NC(=O)CCc1c[nH]c2ccccc12)NCCCCc1ccccc1 6.51

====

Target: Protein arginine N-methyltransferase 6 (Homo sapiens, UniProt Q96LA8)
Sequence (Q96LA8 whole entry): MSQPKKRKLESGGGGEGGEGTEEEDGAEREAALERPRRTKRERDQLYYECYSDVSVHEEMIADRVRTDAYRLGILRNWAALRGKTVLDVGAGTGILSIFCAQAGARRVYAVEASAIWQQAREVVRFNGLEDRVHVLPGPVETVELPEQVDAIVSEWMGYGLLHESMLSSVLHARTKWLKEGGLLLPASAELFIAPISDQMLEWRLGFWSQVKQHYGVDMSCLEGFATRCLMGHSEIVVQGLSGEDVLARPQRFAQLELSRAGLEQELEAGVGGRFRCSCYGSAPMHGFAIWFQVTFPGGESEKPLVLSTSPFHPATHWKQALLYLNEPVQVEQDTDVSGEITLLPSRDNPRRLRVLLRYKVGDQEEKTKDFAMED
Experiment: Affinity Biochemical interaction: (enzymatic assay (inhibition of methyl transfer from radiolabelled substrate [3H]SAM to peptide)) EUB0002245aCl PRMT6
READOUT NAME: IC50 (nM)
One number for each entry, in nM.

Specify reported IC50 for the compound shown: CCOCC1(COCC)CCC(c2n[nH]cc2CN(C)CCNC)CC1 4.7

====

Molecular target: Histone acetyltransferase KAT7 (Homo sapiens, UniProt O95251)
Sequence (O95251 whole entry): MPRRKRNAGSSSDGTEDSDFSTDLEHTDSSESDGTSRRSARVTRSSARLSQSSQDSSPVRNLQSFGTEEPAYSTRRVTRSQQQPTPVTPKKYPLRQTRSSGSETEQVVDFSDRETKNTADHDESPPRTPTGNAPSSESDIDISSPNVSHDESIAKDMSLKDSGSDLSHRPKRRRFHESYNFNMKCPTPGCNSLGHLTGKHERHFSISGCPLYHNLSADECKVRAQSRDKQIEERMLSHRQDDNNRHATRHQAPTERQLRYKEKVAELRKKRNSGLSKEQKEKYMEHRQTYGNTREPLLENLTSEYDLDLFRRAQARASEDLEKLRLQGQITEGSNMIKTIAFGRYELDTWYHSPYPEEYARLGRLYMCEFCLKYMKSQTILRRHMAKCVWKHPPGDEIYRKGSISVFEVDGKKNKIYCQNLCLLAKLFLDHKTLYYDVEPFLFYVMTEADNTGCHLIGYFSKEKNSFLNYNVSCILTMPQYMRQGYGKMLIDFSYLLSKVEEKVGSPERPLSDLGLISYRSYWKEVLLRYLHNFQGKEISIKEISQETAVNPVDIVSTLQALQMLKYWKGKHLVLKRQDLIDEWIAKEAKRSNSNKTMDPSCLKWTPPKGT
Experiment: Affinity Biochemical interaction: (SPR) EUB0001094a MYST2
READOUT NAME: pKd
Give bare numbers, as −log10 of the molar value.

State pKd (Histone acetyltransferase KAT7 (Homo sapiens, UniProt O95251)) of Cc1cc(-c2ccccc2)cc(C(=O)NNS(=O)(=O)c2cccc(O)c2)c1F . 7.47

====

Target: 3',5'-cyclic-AMP phosphodiesterase 4B (Homo sapiens)
Sequence (Q07343 whole entry): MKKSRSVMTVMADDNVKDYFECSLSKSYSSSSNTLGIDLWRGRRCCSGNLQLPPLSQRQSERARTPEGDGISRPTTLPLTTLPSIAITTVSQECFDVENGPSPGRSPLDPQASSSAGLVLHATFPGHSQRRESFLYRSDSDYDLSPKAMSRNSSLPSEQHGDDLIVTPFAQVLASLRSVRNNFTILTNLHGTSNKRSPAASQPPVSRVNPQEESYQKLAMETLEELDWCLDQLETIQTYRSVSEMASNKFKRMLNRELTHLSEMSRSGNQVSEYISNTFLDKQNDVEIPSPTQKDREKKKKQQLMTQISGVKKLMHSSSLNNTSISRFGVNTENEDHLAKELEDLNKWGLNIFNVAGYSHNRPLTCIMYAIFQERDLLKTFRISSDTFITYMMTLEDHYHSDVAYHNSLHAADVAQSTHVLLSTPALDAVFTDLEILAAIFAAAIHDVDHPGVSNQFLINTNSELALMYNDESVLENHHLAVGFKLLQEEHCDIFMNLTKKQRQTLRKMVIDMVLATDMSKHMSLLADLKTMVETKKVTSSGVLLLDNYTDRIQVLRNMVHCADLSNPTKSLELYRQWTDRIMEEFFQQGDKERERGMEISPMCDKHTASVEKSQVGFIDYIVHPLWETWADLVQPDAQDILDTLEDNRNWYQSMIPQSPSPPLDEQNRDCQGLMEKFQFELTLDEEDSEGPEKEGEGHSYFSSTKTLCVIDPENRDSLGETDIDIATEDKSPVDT
Assay: Affinity Biochemical interaction: (Inhibition of enzyme activity, scintillation proximity assay with radiolabelled [3H]cAMP) EUB0002694a PDE4B
Type: functional
Parameters: mode of action Inhibitor, recommended concentration 1 uM
READOUT NAME: IC50

Specify reported IC50 for the molecule shown: N#Cc1ccc(-c2c3n(c4cccnc24)CCN(C2CC2)C3=O)cc1F < 1 nM

====

Target: UniProt:P42574
Sequence (P42574 whole entry): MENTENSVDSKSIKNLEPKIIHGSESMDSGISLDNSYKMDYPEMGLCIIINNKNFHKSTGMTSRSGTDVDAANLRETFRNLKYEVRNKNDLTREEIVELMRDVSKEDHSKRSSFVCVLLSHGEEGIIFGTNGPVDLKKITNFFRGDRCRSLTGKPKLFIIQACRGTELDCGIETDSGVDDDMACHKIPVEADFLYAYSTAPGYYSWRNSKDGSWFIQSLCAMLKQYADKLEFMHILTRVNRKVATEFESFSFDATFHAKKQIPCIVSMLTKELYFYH
Test: Affinity Biochemical interaction: (enzymatic assay (fluorogenic substrate cleavage)) EUB0002178aAD CASP3
Type: functional
Set-up: mode of action Inhibitor, recommended concentration 1 uM
Residues, ends and D or L forms follow the SMILES beside them.
READOUT NAME: IC50 (nM)
Give bare numbers, in nM.

Specify reported IC50 for the compound shown: CC[C@H](C)[C@H](NC(=O)[C@H](CCC(=O)O)NC(=O)[C@@H](NC(C)=O)C(C)C)C(=O)N[C@H](C=O)CC(=O)O (Ac-VEID-aldehyde) 13.6

====

Molecular target: Caspase-2 (Homo sapiens)
Sequence (P42575 170-325 limits assumed): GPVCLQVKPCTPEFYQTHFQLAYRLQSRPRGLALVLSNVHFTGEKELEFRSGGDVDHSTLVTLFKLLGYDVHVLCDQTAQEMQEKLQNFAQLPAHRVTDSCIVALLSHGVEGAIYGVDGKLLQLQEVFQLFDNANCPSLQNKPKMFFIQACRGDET
Sequence (P42575 334-452 limits assumed): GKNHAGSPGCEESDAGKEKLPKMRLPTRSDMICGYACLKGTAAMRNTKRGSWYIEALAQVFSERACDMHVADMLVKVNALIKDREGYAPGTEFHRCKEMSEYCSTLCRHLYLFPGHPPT
Experiment: Affinity Biochemical interaction: (enzymatic assay (cleavage of fluorogenic substrate)) EUB0002782a CASP2
pIC50: −log10 of the molar value. Residues, ends and D or L forms follow the SMILES beside them. *: point of attachment. Cbz = O=C(OCc1ccccc1)*; CH2F = FC*
READOUT NAME: pIC50

Specify reported pIC50 for the molecule shown: COC(=O)CC(NC(=O)C(C)NC(=O)C(NC(=O)C(CC(=O)OC)NC(=O)C(NC(=O)OCc1ccccc1)C(C)C)C(C)C)C(=O)CF (stereo unspecified) (Cbz-VD(OMe)VAD(OMe)-CH2F; configuration not given here) ~7.10
